Where do these numbers come from? They come from patent US8709741B2.

- Test system: P. falciparum FcB1/Colombian strain
- Run Description: Anti-Plasmodium activity assay (dose-response, 3H-hypoxanthine incorporation), culture with human serum
- Type: cell-based
- Details: standard P. falciparum cultures with serum
- Procedure: The chloroquine-resistant P. falciparum FcB1/Colombian strain was used. Under the following culture conditions, the in vitro life cycle of the FcB1 strain was 48 hours. […] Parasitaemia and stage distribution were determined by optical examination of Diff-Quick stained culture smears. […]
Measure: inhibition of P. falciparum development in vitro

molecule="XIIB: recombinant human group XIIB sPLA2-like protein (protein, UniProt Q9BX93 20-195, looked up) Group XIIB secretory …: QSDTSPDTEESYSDWGLRHLRGSFESVNSYFDSFLELLGGKNGVCQYRCRYGKAPMPRPGYKPQEPNGCGSYFLGLKVPESMDLGIPAMTKCCNQLDVCYDTCGANKYRCDAKFRWCLHSICSDLKRSLGFVSKVEAACDSLVDTVFNTVWTLGCRPFMNSQRAACICAEEEKEEL" result=non-toxic
molecule="IIE: recombinant human group IIE secreted phospholipase A2 (protein, UniProt Q9NZK7 20-142, looked up) Group IIE secretory …: NLVQFGVMIEKMTGKSALQYNDYGCYCGIGGSHWPVDQTDWCCHAHDCCYGRLEKLGCEPKLEKYLFSVSERGIFCAGRTTCQRLTCECDKRAALCFRRNLGTYNRKYAHYPNKLCTGPTPPC" result=non-toxic
molecule="XIIA: recombinant human group XIIA secreted phospholipase A2 (protein, UniProt Q9BZM1 23-189, looked up) Group XIIA secretory …: QEQAQTTDWRATLKTIRNGVHKIDTYLNAALDLLGGEDGLCQYKCSDGSKPFPRYGYKPSPPNGCGSPLFGVHLNIGIPSLTKCCNQHDRCYETCGKSKNDCDEEFQYCLSKICRDVQKTLGLTQHVQACETTVELLFDSVIHLGCKPYLDSQRAACRCHYEEKTDL" result=non-toxic
